Tested on: LOX IMVI melanoma
test-description: NCI tumour cell line growth inhibition, 48 h
Where a SMILES comes first, the peptide text is derived from it. [ ]: non-standard residue; d: D form.
quantity-kind: TGI

Here is how some compounds turned out for TGI.
| compound | TGI |
| --- | --- |
| NS(=O)(=O)c1ccc(NCc2nc3ccccc3[nH]2)cc1 | > 100 µM |
| NC(=S)NS(=O)(=O)c1ccc(Cl)cc1 | > 100 µM |
| COc1ccc2c(c1)C=CC1C2CC[C@]2(C)C(NC(=O)/C=C/c3ccc(O)c(O)c3)CCC12 (stereo partly drawn) | 20.2 µM |

Inquiry: Query: TGI; subject: CSCC[C@H](NC(=O)[C@@H](N)CC(N)=O)C(=O)N[C@@H](Cc1c[nH]c2ccccc12)C(=O)N[C@@H](CCC(N)=O)C(=O)N[C@@H](CCC(=O)O)C(=O)N[C@H](C(=O)NCC(=O)N[C@@H](CCCCN)C(=O)N[C@H](C)C(=O)O)C(C)C (H-NMWQEVGK[dA]-OH)
Reply text: > 100 µM

Inquiry: Another: Cc1ccc(C(=O)N/N=C(\N=Nc2ccccc2C(=O)O)c2ccc(N(C)C)cc2)cc1
Reply text: > 100 µM

Inquiry: Another: O=c1onc(Nc2ccccc2)n1-c1ccccc1
Reply text: > 100 µM

Inquiry: Another: CC(C)(C)CC(C)(C)NCC(O)COc1ccc(C(C)(C)c2ccc(OCC(O)CNC(C)(C)CC(C)(C)C)cc2)cc1 (stereo not drawn)
Reply text: 1.35 µM

Inquiry: Another: Oc1ccc(O)c(-n2cccn2)c1-n1cccn1
Reply text: > 100 µM

Inquiry: Another: CC1=C2C3OC(=O)C(C)C3C(O)C[C@@]2(C)C(=O)CC1 (stereo partly drawn)
Reply text: > 100 µM

Inquiry: Another: CCOC(=O)C1=C(C)N(Cc2ccccc2)C2(O)C(OC)CC(=O)C3C(=O)N(c4ccccc4)C(=O)C132 (stereo not drawn)
Reply text: > 100 µM

Inquiry: Another: O=C1/C(=C/c2ccc(O)cc2)Oc2ccccc21
Reply text: > 100 µM

Inquiry: Another: CNc1nc(-c2ccc3c(N)n[nH]c3c2)cc(N2C[C@@H](C(=O)NC3CCCCC3)CC[C@H]2C)n1
Reply text: 19.4 µM

Inquiry: Another: NNS(=O)(=O)c1ccc(/C=C2\NC(=O)NC2=O)cc1
Reply text: > 100 µM

Inquiry: Another: O=C(/C=C/c1ccc(Cl)cc1Cl)c1ccc(Cl)cc1Cl
Reply text: 30.1 µM

Inquiry: Another: Cc1c(Cl)cccc1NC(=O)C(=O)c1c(O)c2ccc(O)cc2oc1=O
Reply text: > 100 µM

Inquiry: Another: CC1=C(C(=O)NCc2ccccc2)C(c2ccco2)C(C(=O)NCc2ccccc2)=C(C)N1
Reply text: > 100 µM

Inquiry: Another: Cc1ccc([N+]2=NC(c3ccccc3)=NN(c3ccccc3)C2)cc1
Reply text: > 100 µM

Inquiry: Another: C[C@@H](C[C@H](CCO)c1ccccc1)c1ccc2ccccc2c1
Reply text: 2.96 µM

###

The molecules listed here are annotated with their GI50.
System: RPMI-8226 leukemia
test-description: NCI tumour cell line growth inhibition, 48 h

| molecule | measured |
| --- | --- |
| Cn1cccc1-c1cc(-c2ccccc2)nc(N)c1C#N | 55.9 µM |
| N=C1C=C(N)C(=O)c2ccccc21 | 0.241 µM |
| COc1ccc(C2C3=C(COC3=O)N(CCO)c3cc4c(cc32)CCC4)cc1 (stereo not drawn) | 11.4 µM |

Inquiry: Query: GI50; subject: CNC(=O)c1cc(-c2ccc(F)cc2)cc(-c2ccc(S(=O)(=O)N3CCCC3)cc2)c1N
Reply text: 10.1 µM

Inquiry: Another: c1ccc(-c2cc3n4c(-c5ccccc5)nn(-c5ccccc5)c4cnc-3n2)cc1
Reply text: > 50 µM

###

Test system: CCRF-CEM leukemia
test-description: NCI tumour cell line growth inhibition, 48 h
quantity-kind: GI50

| compound | target-or-system | GI50 |
| --- | --- | --- |
| COc1ccc(F)cc1-c1ccnc2[nH]c(C3=CCN(C4CCC(CC(=O)O)CC4)CC3)cc12 (stereo not drawn) | CCRF-CEM leukemia | 0.13 µM |
| N#Cc1cc2c(cc1Cl)SC(=Nc1ccccc1)N(S(=O)(=O)c1ccc(Br)s1)S2(=O)=O | CCRF-CEM leukemia | 21.8 µM |
| Cn1cc(-c2csc(-c3cn(C(=O)OC(C)(C)C)c4ccccc34)n2)c2cccnc21 | CCRF-CEM leukemia | 3.89 µM |
| CCSc1nc(N)c2cnn(CC)c2n1 | CCRF-CEM leukemia | 3.58 µM |
| CC[C@@H](C(=O)[C@@H](C)[C@@H](O)[C@H](C)[C@@H]1O[C@@H]([C@@H](CC)C(=O)O)CC[C@@H]1C)[C@H]1O[C@]2(C=C[C@@H](O)[C@]3(CC[C@@](C)([C@H]4CC[C@](O)(CC)[C@H](C)O4)O3)O2)[C@H](C)C[C@@H]1C | CCRF-CEM leukemia | 0.255 µM |
| CSc1nc2ccc(C)cc2cc1/C=C1/C=C(c2ccccc2)NC1=O | CCRF-CEM leukemia | 26.4 µM |
| CC1=C(SCCC(=O)OC(C[Se]C2=C(C)C(=O)c3ccccc3C2=O)C(=O)NC(C)(C)C)C(=O)c2ccccc2C1=O (stereo not drawn) | CCRF-CEM leukemia | 0.306 µM |

Proceeding to the next compound to report its GI50.
Inquiry: Query: GI50; subject: NC1=C(O)C(=O)C(c2c[nH]c3ccc(OCc4ccccc4)cc23)O1 (stereo not drawn)
Reply text: > 100 µM

###

System: SN12C renal
test-description: NCI tumour cell line growth inhibition, 48 h
quantity-kind: TGI

| compound | TGI |
| --- | --- |
| Oc1ccc(O)c(-n2cccn2)c1-n1cccn1 | > 100 µM |
| O=c1[nH]c2ccc(C(F)(F)F)cc2nc1C(F)(F)F | 87.6 µM |

Inquiry: Query: TGI; subject: CC1(C2CCC3(C)C(C2)C3Sc2ccccc2)OCCO1 (stereo unspecified)
Reply text: 46.8 µM

Inquiry: Another: CC(=O)/C(=C/N1CCN(C(=O)c2ccco2)C1=S)C(=O)c1ccccc1
Reply text: 15.2 µM

Inquiry: Another: CCOP(=O)(Cc1nc(C#N)c(N)o1)OCC
Reply text: > 100 µM

Inquiry: Another: CC(=O)c1c(O)cc(O)c(-c2c(C)cc(O)c3c2C(=O)c2cccc(O)c2C3=O)c1O
Reply text: 36 µM

Inquiry: Another: O=C1C=CC(=O)c2c(O)c(N(CCCl)CCCl)c(Cl)c(O)c21
Reply text: > 7.71 µM

Inquiry: Another: COc1ccc(C2C3=C(COC3=O)N(CCO)c3cc4c(cc32)CCC4)cc1 (stereo unspecified)
Reply text: > 50 µM

Inquiry: Another: O/N=C1\C(=C\c2ccc3c(c2)OCCO3)CCCC1C(NO)c1ccc2c(c1)OCCO2 (stereo unspecified)
Reply text: 29.8 µM

Inquiry: Another: Cn1cccc1-c1cc(-c2ccccc2)nc(N)c1C#N
Reply text: > 100 µM

Inquiry: Another: COc1ccc(/N=N/C(=NNC(=O)c2ccc(C)cc2)c2ccc(N(C)C)cc2)cc1
Reply text: > 100 µM

###

The compounds listed here are annotated with their GI50.
System: SNB-75 CNS
test-description: NCI tumour cell line growth inhibition, 48 h

Here is how some compounds turned out for GI50.
| smiles-code | GI50 |
| --- | --- |
| CCOC(=O)N(O)c1ccc(/C=C/c2ccccc2)cc1 | 29.3 µM |
| COc1ccc(S(=O)(=O)Nc2cc(Sc3cccc4cccnc34)c(O)c3ccccc23)cc1 | 3.41 µM |
| N#Cc1cc2c(cc1Cl)SC(=Nc1ccccc1)N(S(=O)(=O)c1ccc(Br)s1)S2(=O)=O | 24 µM |

Proceeding to the next compound to report its GI50.
Inquiry: Query: GI50; subject: CN(C)CCOc1ccc2c(c1)C(=O)/C(=C\c1ncc([N+](=O)[O-])n1C)C2
Reply text: 0.474 µM

###

System: HOP-92 NSCLC
test-description: NCI tumour cell line growth inhibition, 48 h
The compounds listed here are annotated with their TGI.
State the answer as a number, implicitly in µM.

| compound | TGI / µM |
| --- | --- |
| O=[N+]([O-])c1ccc2nc(-c3ccc(Cl)cc3)[nH]c2c1 | 64.2 |
| CC1=NN(c2nc(N)nc(-c3cc4ccccc4oc3=N)n2)C(C)(C)C1 | 42.7 |
| N#Cc1cc2c(cc1Cl)SC(=Nc1ccccc1)N(S(=O)(=O)c1ccc(Br)s1)S2(=O)=O | 39.7 |
| OCC(S)CS.[Bi] (centres undefined) | 44.6 |
| CCCC(=O)OC(OC(=O)CCC)c1ccc([N+](=O)[O-])o1 | 56.3 |

Inquiry: Query: TGI; subject: N=C1C=C(N)C(=O)c2ccccc21
Reply text: 0.496

Inquiry: Another: C=C1CC(O)C2C(=C)C(=O)OC2C2C(C)C(=O)CC12 (centres undefined)
Reply text: 33.8

Inquiry: Another: CC/C(C)=C1\CCC(CN(C)C)C1=O (centres undefined)
Reply text: 46.2

Inquiry: Another: O/N=C1\C(=C\c2ccc3c(c2)OCCO3)CCCC1C(NO)c1ccc2c(c1)OCCO2 (centres undefined)
Reply text: 93.4

Inquiry: Another: CC(=O)[O][Hg][c]1s[c]([Hg][O]C(C)=O)[c]([Hg][O]C(C)=O)[c]1[Hg][O]C(C)=O
Reply text: 5.88

Source listed as PubChem BioAssay (NCI).
